Experiment: Single-dose toxicokinetic and tolerability study of prodrugs in dogs
Format: in vivo, dog
Conditions: female, dog, plasma, 25 mg/kg, dog 2201F, day 8, Icb 25 mg/kg QD aqueous solution; read-out: C24h
Experimental: A multi-phase study was conducted to evaluate the tolerability of the prodrug, Iab (monolysine salt) at dosages of 24, 90, or 240 mg/kg (free acid, molar equivalent to 19, 71, or 190 mg/kg of parent IVa, respectively) and the toxicokinetics of lab and IVa (4). Iab was administered to two female dogs/group once daily either as an aqueous solution (24 or 90 mg/kg) or dry-filled capsules (24, 90 [once and twice daily] or 240 mg/kg). […]
METRIC_NAME: concentration at 24 h (nM)

• COc1cnc(-n2cnc(C)n2)c2[nH]cc(C(=O)C(=O)N3CCN(C(=O)c4ccccc4)CC3)c12 = 107
